# Test system: HCT-116
# EXPERIMENT_DESCRIPTION: Cell proliferation, cell count by microscopy, HSA synergy (Examples 2-9)
# Format: cell-based
# MEASUREMENT_CONDITIONS: Example 4, single agent, 72 h, cell count relative to DMSO

{"STRUCTURE_SMILES": "CC1(C)CCC(c2ccc(Cl)cc2)=C(CN2CCN(c3ccc(C(=O)NS(=O)(=O)c4ccc(N[C@H](CCN5CCOCC5)CSc5ccccc5)c(S(=O)(=O)C(F)(F)F)c4)cc3)CC2)C1", "IC50": "> 10 µM"}
